Assign Diameter of colony (mm) to each entry below.
Tested on: Sclerotinia sclerotinia
Assay: Fungicidal effect on infected agar nutrient media, colony diameter
Assay type: cell-based
Details: 1 ppm; 3rd day after treatment; untreated control 41.7
Protocol: Agar nutrient media (Diameter 70 MM, thickness 10 mm) infected by Sclerotonia sclerotinia suspension are treated with 20 EC formulations prepared according to Example 27 and comprising 1, 10, 100 and 1000 ppm, respectively of the active ingredient of the Formula I. The fungicidal effect of the compositions is evaluated on the 3rd day after treatment by measuring the diameter of the Fungi colonies.
One number for each entry, in mm.

For orientation, consider the following solved cases.
[[record]]
molecule = "CCCCOP1(=S)OC(C)CS1 (stereo not shown) [Compound 60]"
readout = "Diameter of colony (mm)"
reading = 33.7

[[record]]
molecule = "CC1CSP(=S)(OCCBr)O1 (stereo not shown)"
readout = "Diameter of colony (mm)"
reading = 35.4

[[record]]
molecule = "CC1CSP(=S)(OC(C)C(C)I)O1 (stereo not shown)"
readout = "Diameter of colony (mm)"
reading = 37.2


Form: molecule = CC1CSP(=S)(OCCI)O1 (stereo not shown) ; Diameter of colony (mm) = 39.3
